Values were extracted from patent US20090022728A1.

# maps each entry to its koff
- experimental-target: T1, biotinylated Aβ1-40 peptide (biotinylated (N-biotinylated in Example 7))
- T1 construct: captured on streptavidin (SA) chip; also called Biotinylated Aβ peptide 1-40; Aβ1-40 on SA chip
- T1 sequence (peptide, as listed by the source): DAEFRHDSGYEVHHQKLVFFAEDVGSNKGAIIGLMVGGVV
- assay-comment: SPR, Fab over Aβ1-40 on SA chip
API: value field is a number in s⁻¹; no unit string.

(Q) Find the recorded koff belonging to 9TL variant M22 Fab (Fab, V domains shown, Fab; human IgG2 CH1 and kappa CL) VH: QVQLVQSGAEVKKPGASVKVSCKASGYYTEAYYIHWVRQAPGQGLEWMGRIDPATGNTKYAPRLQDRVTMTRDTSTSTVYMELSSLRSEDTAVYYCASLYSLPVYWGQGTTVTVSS VL: DVVMTQSPLSLPVTLGQPASISCKSSQSLLYSDAKTYLNWFQQRPGQSPRRLIYQISRLDPGVPDRFSGSGSGTDFTLKISRVEAEDVGVYYCLQGTHYPLLFGQGTRLEIKR and report it.
(A) 0.004

(Q) And what about the binder 9TL variant M53 Fab (Fab, V domains shown, Fab; human IgG2 CH1 and kappa CL) VH: QVQLVQSGAEVKKPGASVKVSCKASGYYTEAYYIHWVRQAPGQGLEWMGRIDPATGNTKYAPRLQDRVTMTRDTSTSTVYMELSSLRSEDTAVYYCASLYSLPVWWGQGTTVTVSS VL: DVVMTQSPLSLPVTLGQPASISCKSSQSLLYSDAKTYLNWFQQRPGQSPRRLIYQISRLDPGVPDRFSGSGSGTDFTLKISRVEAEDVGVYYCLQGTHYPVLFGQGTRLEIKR ?
(A) 0.0013

(Q) And what about the binder 9TL variant M20 Fab (Fab, V domains shown, Fab; human IgG2 CH1 and kappa CL) VH: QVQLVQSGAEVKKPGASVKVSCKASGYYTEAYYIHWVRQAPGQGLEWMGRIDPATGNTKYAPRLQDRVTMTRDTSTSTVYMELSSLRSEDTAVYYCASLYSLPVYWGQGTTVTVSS VL: DVVMTQSPLSLPVTLGQPASISCKSSQSLLYSDAKTYLNWFQQRPGQSPRRLIYQISRLDPGVPDRFSGSGSGTDFTLKISRVEAEDVGVYYCLQGTHSPVLFGQGTRLEIKR ?
(A) 0.002
